target: CD28 (human) (UniProt P10747); test: flow cytometry, Jurkat cells (CD28)
Property measured: Fold change to WT CD80 (fold)

Recorded results for 5 binders are shown here.
CD80 T13R/Q33R/E35D/M47L/V68M/L85M IgV-Fc (Fc fusion) VIHVTKEVKEVARLSCGHNVSVEELAQTRIYWRKDKKMVLTMMSGDLNIWPEYKNRTIFDITNNLSIMILALRPSDEGTYECVVMKYEKDAFKREHLAEVTLSVKAD = 3.6
variant CD80 IgV-Fc M47L/V68M/A71G/D90G (Fc fusion) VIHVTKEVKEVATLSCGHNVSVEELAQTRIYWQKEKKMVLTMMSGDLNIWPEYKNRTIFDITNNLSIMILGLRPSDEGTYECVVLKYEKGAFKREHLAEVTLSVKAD = 82.2
CD80 IgV-Fc H18Y/E35D/M47V/V68M/L85M (Fc fusion) VIHVTKEVKEVATLSCGYNVSVEELAQTRIYWQKDKKMVLTMMSGDVNIWPEYKNRTIFDITNNLSIMILALRPSDEGTYECVVMKYEKDAFKREHLAEVTLSVKAD = 33.7
variant CD80 IgV-Fc H18Y/A26E/V68M/D90G (Fc fusion) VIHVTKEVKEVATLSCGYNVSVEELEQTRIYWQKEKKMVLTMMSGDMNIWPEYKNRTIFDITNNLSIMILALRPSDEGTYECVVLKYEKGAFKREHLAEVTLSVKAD = 54.5
variant CD80 IgV-Fc E35D/M47L/V68M/D90G (Fc fusion) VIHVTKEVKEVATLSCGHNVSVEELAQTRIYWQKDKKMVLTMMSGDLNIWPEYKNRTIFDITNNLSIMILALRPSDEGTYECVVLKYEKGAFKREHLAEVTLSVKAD = 77.8

(a) variant CD80 IgV-Fc H18Y/M47L/V68M/D90G (Fc fusion) VIHVTKEVKEVATLSCGYNVSVEELAQTRIYWQKEKKMVLTMMSGDLNIWPEYKNRTIFDITNNLSIMILALRPSDEGTYECVVLKYEKGAFKREHLAEVTLSVKAD
(b) variant CD80 IgV-Fc A26E/E35D/M47L/D90G (Fc fusion) VIHVTKEVKEVATLSCGHNVSVEELEQTRIYWQKDKKMVLTMMSGDLNIWPEYKNRTIFDITNNLSIVILALRPSDEGTYECVVLKYEKGAFKREHLAEVTLSVKAD
(c) CD80 E35D/M47V/N48K/V68M/A71G/L85M IgV-Fc (Fc fusion) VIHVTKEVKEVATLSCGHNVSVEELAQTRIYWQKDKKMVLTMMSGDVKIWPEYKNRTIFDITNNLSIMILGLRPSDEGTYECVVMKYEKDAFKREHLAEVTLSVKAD
Exercise: Reorder the items by Fold change to WT CD80, least to greatest. Answer by listing the labels in the requested order.
Key: c, b, a
(c: 9.6 fold, b: 35.3 fold, a: 86.4 fold)
